# Measured target: Protein RecA (Mycobacterium tuberculosis, UniProt P9WHJ3)
# Sequence (P9WHJ3 whole entry): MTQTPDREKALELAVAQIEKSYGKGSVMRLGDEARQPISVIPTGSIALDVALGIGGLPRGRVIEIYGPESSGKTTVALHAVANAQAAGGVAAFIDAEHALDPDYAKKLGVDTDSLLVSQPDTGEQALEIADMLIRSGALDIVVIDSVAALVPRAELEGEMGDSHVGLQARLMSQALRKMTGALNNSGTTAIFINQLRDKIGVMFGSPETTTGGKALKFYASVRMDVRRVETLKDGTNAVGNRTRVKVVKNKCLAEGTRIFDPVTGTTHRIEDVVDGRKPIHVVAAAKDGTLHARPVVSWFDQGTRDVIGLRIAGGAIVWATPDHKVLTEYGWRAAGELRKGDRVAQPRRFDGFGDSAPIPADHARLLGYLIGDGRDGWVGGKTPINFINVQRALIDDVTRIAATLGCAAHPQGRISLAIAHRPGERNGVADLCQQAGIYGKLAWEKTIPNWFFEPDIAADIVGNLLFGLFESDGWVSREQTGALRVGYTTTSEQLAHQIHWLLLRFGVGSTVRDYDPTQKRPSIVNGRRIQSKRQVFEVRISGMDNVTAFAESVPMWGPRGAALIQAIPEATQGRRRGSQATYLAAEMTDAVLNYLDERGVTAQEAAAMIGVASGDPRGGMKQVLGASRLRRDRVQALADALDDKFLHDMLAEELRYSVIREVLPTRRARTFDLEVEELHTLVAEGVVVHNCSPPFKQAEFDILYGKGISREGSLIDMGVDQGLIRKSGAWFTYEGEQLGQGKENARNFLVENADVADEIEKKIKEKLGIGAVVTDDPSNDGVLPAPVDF
# Experimental details: Fluorescence Cell-Free Homogeneous Dose Retest to Identify Inhibitors of RecA-Intein Splicing Activity. [Related pubchem assays (depositor defined):AID2097, AID2223, AID489010, AID492950]
# Type: functional
The source made the active and inactive calls. Cut-off read from the data, not from the text of the source: actives have a measured EC50 and inactives only a lower limit.
Endpoint label: EC50

>>> result("Cn1c(=O)[nH]c(=O)c2c1nc([N+](=O)[O-])n2Cc1ccccc1")
"5.87 µM (active)"
>>> result("CCCCN(C(=O)c1cccc2c(=O)c(C)c(-c3ccccc3)oc12)c1ccccc1")
"15.2 µM (active)"
>>> result("COc1ccc(C2C(C#N)=C(N)Oc3[nH]nc(C)c32)cc1CN1CCN(c2ccc(F)cc2)CC1 (centres undefined)")
"6.55 µM (active)"
>>> result("ClCc1nnc(-c2cc3c(s2)CCCC3)o1")
"3.55 µM (active)"
